# target entity: recombinant human IL-6 (human, UniProt P05231 30-212)
# Sequence (P05231 30-212 limits assumed): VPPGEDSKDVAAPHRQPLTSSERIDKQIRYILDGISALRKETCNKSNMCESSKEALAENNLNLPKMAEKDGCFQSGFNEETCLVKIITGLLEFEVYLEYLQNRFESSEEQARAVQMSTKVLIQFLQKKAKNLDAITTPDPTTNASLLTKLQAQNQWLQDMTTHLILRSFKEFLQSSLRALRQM
# method description: SPR, IL-6 on CM5 chip, Fab lysate, 25 C

[
  {
    "binder": "anti-IL-6 Fab, heavy chain T65Y (Fab, V domains shown, see m39) VH: EVQLVESGGGLVQPGGSLRLSCAASGFTFSPFAMSWVRQAPGKGLEWVAKISPGGSWTYYSDTVYGRFTFSLDTSKSTAYLQMNSLRAEDTAVYYCARQLWGYYALDIWGQGTLVTVSS VL: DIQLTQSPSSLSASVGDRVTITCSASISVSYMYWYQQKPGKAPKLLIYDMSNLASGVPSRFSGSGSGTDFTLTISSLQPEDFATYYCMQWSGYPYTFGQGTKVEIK",
    "koff (s⁻¹)": 0.00574
  },
  {
    "binder": "anti-IL-6 Fab, light chain N52S (Fab, V domains shown, see m39) VH: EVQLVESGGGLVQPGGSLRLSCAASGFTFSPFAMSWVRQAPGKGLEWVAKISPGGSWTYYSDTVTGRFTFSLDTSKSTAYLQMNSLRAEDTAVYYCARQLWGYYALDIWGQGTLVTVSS VL: DIQLTQSPSSLSASVGDRVTITCSASISVSYMYWYQQKPGKAPKLLIYDMSSLASGVPSRFSGSGSGTDFTLTISSLQPEDFATYYCMQWSGYPYTFGQGTKVEIK",
    "koff (s⁻¹)": 0.00555
  }
]
